Data provenance: ChEMBL document CHEMBL1201862

System: SF-268
Assay Comment: NCI tumour cell line growth inhibition, 48 h
Active and inactive are the calls of the source. Rule as the data show it: active = GI50 up to about 1.1 µM and inactive = higher.
Possible outcomes: 1 for active, 0 for inactive

Molecule | Target Entity | Group
CC[C@@]1(C[C@H]2C[C@@]3(C(=O)OC)c4[nH]c5ccccc5c4CCN3C2=S)COC2(CCCCC2)O1 | SF-268 | 0
CC(C)CCOC(=O)NC(Nc1ccc(F)cc1)(C(F)(F)F)C(F)(F)F | SF-268 | 0
Cc1ccc([N+](=O)[O-])cc1S(=O)(=O)Nc1ccc(C2=NNC(c3ccccc3)C2)cc1 (centres undefined) | SF-268 | 0
CCCCCCCCCCCC[C@@H](O)[C@H]1CC[C@H]([C@H]2CC[C@H]([C@H](O)CC[C@H](O)CCCCCCCC3=C[C@H](C)OC3=O)O2)O1 | SF-268 | 0
O=C(c1ccccc1)c1ccc(OCCOc2ccc(Nc3ccccc3)cc2)cc1 | SF-268 | 0
CC(=O)Oc1ccc2c(c1)[nH]c1c3ccc(OC(C)=O)cc3oc(=O)c21 | SF-268 | 0
Cc1cc2c(c3c1c1ccccc1n3C)C(=O)c1ccccc1C2=O | SF-268 | 0
C[N+]1(C)CCCC1C(=O)[O-] (centres undefined) | SF-268 | 0
COc1ccc(N2CCOCC2)cc1 | SF-268 | 0
O=C(O)CSC1=NC(=O)C2(NN1)c1ccccc1-c1ccccc12 | SF-268 | 0
CC1(C)[C@@H]2CC[C@@]1(C)C1(S[S+]1[O-])C21Cc2ccccc2C1 (some centres undefined) | SF-268 | 0
CSc1ncc2c(C#N)c3n(C)c4ccccc4n3c(=O)c2n1 | SF-268 | 0
CC(C)(C)c1ccc2c(c1)C#Cc1cc(C(C)(C)C)ccc1OCCCO2 | SF-268 | 0
CCOC(=O)C1=CC(C)(C(=O)OCC)Nc2c(nc(OC)n(C)c2=O)N1 (centres undefined) | SF-268 | 0
Cc1c(NC(=S)Nc2ccc([N+](=O)[O-])cc2)c(=O)n(-c2ccccc2)n1C | SF-268 | 0
O=[N+]([O-])/C(Cl)=C(/C(Cl)=C(Cl)Cl)N1CCOCC1 | SF-268 | 0
CC(=O)c1c2c(cc3c1CC1(Cc4cc5c(cc4C1)CCC5)C3)CCC2 | SF-268 | 0
Oc1ccc(-c2c3ccccc3c(-c3ccc(O)cc3)c3ccccc23)cc1 | SF-268 | 0
O=C1c2cc([N+](=O)[O-])ccc2NC2C(O)c3ccccc3N12 (centres undefined) | SF-268 | 0
COCCOCOC(C)(C)[C@H](CCO)O[Si](c1ccccc1)(c1ccccc1)C(C)(C)C | SF-268 | 0
CC(C)(C)c1cc2nc(c1)C(C(F)(F)F)(C(F)(F)F)OB(Br)OC2(C(F)(F)F)C(F)(F)F | SF-268 | 0
CC(C)(C)N1C(=O)c2ccccc2C1(O)C(F)(F)F (centres undefined) | SF-268 | 0
CCCCCC(=O)n1[nH]c(=O)n(-c2ccc(OC)cc2)c1=O | SF-268 | 0
COC(=O)/C(C#N)=C(\Nc1ccccc1)N1CCCCC1 | SF-268 | 0
COC[C@@H](C[C@H]1O[C@@](O)([C@H](O)[C@@H]2C[C@H](OC)[C@@H](O)CC/C=C(C)/C=C/[C@@H](O[C@@H]3O[C@@H](C)[C@H](OC)[C@@H](O)[C@@H]3O)[C@H](C)/C=C(C)/C=C(C)/C=C(\C)C(=O)O2)[C@H](C)[C@@H](O)[C@H]1C)O[C@H]1C[C@](C)(O)[C@@H](O[C@H]2C[C@@H](OC)[C@H](O)[C@@H](C)O2)C(C)O1 (some centres undefined) | SF-268 | 0
CC(C)(C)OC1=C(OC(C)(C)C)C(O)(c2ccccc2)C1=O (centres undefined) | SF-268 | 0
Cc1cc(C(=O)CCCCOc2ccc(C3=NCCO3)cc2)c(C)n1C | SF-268 | 0
O=C1CCC2(c3ccc(Cl)cc3)Nc3ncccc3N12 (centres undefined) | SF-268 | 0
O=C1/C(=C/c2ccco2)N=C(c2ccccc2)N1c1cc2cc(Sc3ccccc3)ccc2[nH]1 | SF-268 | 0
CNCCCCN(C)/[N+]([O-])=N\O | SF-268 | 0
O=[N+]([O-])c1ccc(-c2ccc(C3=Nn4c(nnc4-c4ccc(Cl)cc4)SC3)o2)cc1 | SF-268 | 0
Fc1ccccc1C1SCc2nc3ccccc3n21 (centres undefined) | SF-268 | 0
CCOC(=O)C(C)c1nc2cc(F)c(N3CCOCC3)cc2[nH]c1=O (centres undefined) | SF-268 | 0
Cc1cc2c(C(C)C)c(O)c(O)c(/C=N/c3cc(C(F)(F)F)ccc3Cl)c2c(O)c1-c1c(C)cc2c(C(C)C)c(O)c(O)c(/C=N/c3cc(C(F)(F)F)ccc3Cl)c2c1O | SF-268 | 0
CC1=NN(c2nc(N)nc(COc3ccc(N)cc3)n2)C(C)(C)C1 | SF-268 | 0
CCN(CC)c1ccc2cc(C(=O)Nc3ccc(C)cc3)c(=N)oc2c1 | SF-268 | 0
COc1cc(C(SCc2ccccc2)SCc2ccccc2)ccc1O | SF-268 | 0
Cc1ccccc1CN1CC=c2ccccc2=N1 | SF-268 | 0
NS(=O)(=O)c1ccc(Nc2c3ccccc3nc3c(C(=O)NCCO)cccc23)cc1 | SF-268 | 1
